Experimental system: T1, Human NKp30 (BKM0179) (human, UniProt O14931 19-135, limits assumed)
T1 sequence (looked up): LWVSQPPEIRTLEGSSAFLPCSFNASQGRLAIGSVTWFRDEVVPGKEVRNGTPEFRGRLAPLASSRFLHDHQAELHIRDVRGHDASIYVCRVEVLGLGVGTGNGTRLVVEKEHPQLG
Run description: SPR (Biacore T200): human NKp30 BKM0179 captured via anti-mouse Fc on CM5, antibody as analyte, 1:1 fit
Value type: Kd (nM)
Please give a number only; it is taken to be in nM.

{"Binder": "BKM0139 (scFv, also called BJM0411 VL-D92A) scFv: EIQLLESGGGLVQPGGSLRLSCAVSGFSITTTGYHWNWVRQAPGKGLEWVGYIYSSGSTSYNPSLKSRFTISRDTSKNTFYLQMNSLRAEDTAVYYCARGDWHYFDYWGQGTMVTVSSGGGGSGGGGSGGGGSGGGGSDSVTTQSPLSLPVTLGQPASISCSGEKLSDKYVHWYQQRPGQSPRMLIYENDRRPSGVPDRFSGSNSGNDATLKISRVEAEDVGVYFCQFWASTNSAVFGGGTKVEIK", "Endpoint result": 3.2}
{"Binder": "BKM0144 (scFv, also called BJM0411 VH-N60A-VL-D92A-N95A) scFv: EIQLLESGGGLVQPGGSLRLSCAVSGFSITTTGYHWNWVRQAPGKGLEWVGYIYSSGSTSYAPSLKSRFTISRDTSKNTFYLQMNSLRAEDTAVYYCARGDWHYFDYWGQGTMVTVSSGGGGSGGGGSGGGGSGGGGSDSVTTQSPLSLPVTLGQPASISCSGEKLSDKYVHWYQQRPGQSPRMLIYENDRRPSGVPDRFSGSNSGNDATLKISRVEAEDVGVYFCQFWASTASAVFGGGTKVEIK", "Endpoint result": 6.4}

Need Kd, item BKM0138 (scFv, also called BJM0411 VL-N95A) scFv: EIQLLESGGGLVQPGGSLRLSCAVSGFSITTTGYHWNWVRQAPGKGLEWVGYIYSSGSTSYNPSLKSRFTISRDTSKNTFYLQMNSLRAEDTAVYYCARGDWHYFDYWGQGTMVTVSSGGGGSGGGGSGGGGSGGGGSDSVTTQSPLSLPVTLGQPASISCSGEKLSDKYVHWYQQRPGQSPRMLIYENDRRPSGVPDRFSGSNSGNDATLKISRVEAEDVGVYFCQFWDSTASAVFGGGTKVEIK
3.2
